Recorded Kd, one value per entry.
Target: T1, recombinant human HER3 (human, UniProt P21860 20-643)
T1 construct: Bought reagent
Assay: SPR (Biacore T200), HER3 captured via anti-His, Fab analyte;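 further: single cycle kinetics with five Fab concentrations, referenced against a blank flow cell and mock-buffer injections, sensorgrams fit to a 1:1 binding model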
Entry rule: numbers only, all in nM.

H3 designed Vlambda-Ckappa chimeric Fab, design 34 (E83I_D85T_T105E_V106I) (Fab, name in Kabat numbering, V domains shown) VH: QVQLQESGGGLVKPGGSLRLSCAASGFTFSSYWMSWVRQAPGKGLEWVANINRDGSASYYVDSVKGRFTISRDDAKNSLYLQMNSLRAEDTAVYYCARDRGVGYFDLWGRGTLVTVSS VL: QSALTQPASVSGSPGQSITISCTGTSSDVGGYNFVSWYQQHPGKAPKLMIYDVSDRPSGVSDRFSGSKSGNTASLIISGLQADDIATYYCSSYGSSSTHVIFGGGTKVEILR    75.4
H3 Vlambda-Ckappa chimeric Fab (Fab, V domains shown, Parent chimeric Fab without stabilizing substitutions; also called chimera; VL-CK chimeric Fab) VH: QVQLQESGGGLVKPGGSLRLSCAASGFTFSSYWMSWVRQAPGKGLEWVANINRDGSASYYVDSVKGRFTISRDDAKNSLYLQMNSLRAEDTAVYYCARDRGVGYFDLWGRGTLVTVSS VL: QSALTQPASVSGSPGQSITISCTGTSSDVGGYNFVSWYQQHPGKAPKLMIYDVSDRPSGVSDRFSGSKSGNTASLIISGLQADDEADYYCSSYGSSSTHVIFGGGTKVTVLR    92.7
H3 designed Vlambda-Ckappa chimeric Fab, design 20 (E83F_D85T_T105E_V106I) (Fab, name in Kabat numbering, V domains shown) VH: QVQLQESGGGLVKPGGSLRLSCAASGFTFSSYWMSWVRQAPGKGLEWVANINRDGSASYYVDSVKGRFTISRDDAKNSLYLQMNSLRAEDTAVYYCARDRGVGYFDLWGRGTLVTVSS VL: QSALTQPASVSGSPGQSITISCTGTSSDVGGYNFVSWYQQHPGKAPKLMIYDVSDRPSGVSDRFSGSKSGNTASLIISGLQADDFATYYCSSYGSSSTHVIFGGGTKVEILR    85.8
H3 designed Vlambda-Ckappa chimeric Fab, design 27 (E83V_D85T_T105E) (Fab, name in Kabat numbering, V domains shown) VH: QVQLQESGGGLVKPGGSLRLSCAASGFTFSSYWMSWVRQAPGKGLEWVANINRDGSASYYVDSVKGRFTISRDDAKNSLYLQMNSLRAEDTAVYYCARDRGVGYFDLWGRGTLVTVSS VL: QSALTQPASVSGSPGQSITISCTGTSSDVGGYNFVSWYQQHPGKAPKLMIYDVSDRPSGVSDRFSGSKSGNTASLIISGLQADDVATYYCSSYGSSSTHVIFGGGTKVEVLR    84.1

Here is the next item to consider.
query: Would you mind telling me what Kd value was observed for H3 designed Vlambda-Ckappa chimeric Fab, design 26 (E83V_D85T) (Fab, name in Kabat numbering, V domains shown) VH: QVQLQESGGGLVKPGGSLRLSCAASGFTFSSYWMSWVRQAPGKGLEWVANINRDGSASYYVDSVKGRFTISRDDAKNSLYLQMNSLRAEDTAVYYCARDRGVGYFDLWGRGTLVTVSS VL: QSALTQPASVSGSPGQSITISCTGTSSDVGGYNFVSWYQQHPGKAPKLMIYDVSDRPSGVSDRFSGSKSGNTASLIISGLQADDVATYYCSSYGSSSTHVIFGGGTKVTVLR ?
result: 82.1
